// data source = patent US9573954B2

Test system: colon cancer cells (HCT116)
Test: Cancer cell line growth inhibition, Sulforhodamine B assay, HCT116
Type: cell-based
Conditions: Homo sapiens, HCT-116, HCT116 colon cancer cell line; read-out: Cancer Cell Line GI50 Range HCT116
The reader will find reported GI50 values listed item by item below.
measured attribute: GI50

[[record]]
test_smiles = "Cc1cc(-c2cnn3c(NCCN4CCOCC4)nc(Oc4cccc(F)c4F)nc23)ccc1C(=O)NC1CC1"
measured_attribute = "GI50"
endpoint_value = "≤ 100 nM"

[[record]]
test_smiles = "CCO[C@H]1COC[C@@H]1Nc1cc(NCC2CCOCC2)n2ncc(-c3ccc(C(=O)NC4CC4)c(C)c3)c2n1"
measured_attribute = "GI50"
endpoint_value = "100 to 500 nM"

[[record]]
test_smiles = "Cc1cc(-c2cnn3c(NCCN4CCN(C)CC4)cc(Oc4cccc(F)c4)nc23)ccc1C(=O)NC1CC1"
measured_attribute = "GI50"
endpoint_value = "≤ 100 nM"

[[record]]
test_smiles = "Cc1cc(-c2cnn3c(NCC4(CO)CCOCC4)cc(Oc4cccnc4)nc23)ccc1C(=O)NC1CC1"
measured_attribute = "GI50"
endpoint_value = "100 to 500 nM"


---

Tested on: colon cancer cells (HCT116)
Assay: Cancer cell line growth inhibition, Sulforhodamine B assay, HCT116
Assay type: cell-based
Details: Homo sapiens, HCT-116, HCT116 colon cancer cell line; read-out: Cancer Cell Line GI50 Range HCT116
The reader will find reported GI50 values listed item by item below.
measured attribute: GI50

[[record]]
test_smiles = "Cc1cc(-c2cnn3c(NCCCn4ccnc4)cc(N[C@H]4CCCC[C@H]4O)nc23)ccc1C(=O)NC1CC1"
endpoint_value = "> 500 nM"

[[record]]
test_smiles = "Cc1cc(-c2cnn3c(NCC4CCOCC4)cc(NCC4COC4)nc23)ccc1C(=O)NC1CC1"
endpoint_value = "100 to 500 nM"

[[record]]
test_smiles = "Cc1cc(-c2cnn3c(NCC4CCOCC4)cc(N[C@H](CO)C(C)(C)C)nc23)ccc1C(=O)NC1CC1"
endpoint_value = "100 to 500 nM"

[[record]]
test_smiles = "Cc1cc(-c2cnn3c(NCCN4CCOCC4)cc(Oc4cccc(Cl)c4)nc23)ccc1C(=O)NC1CC1"
endpoint_value = "≤ 100 nM"

[[record]]
test_smiles = "Cc1cc(-c2cnn3c(NCC4CCOCC4)cc(N[C@@H]4CCCC[C@H]4O)nc23)ccc1C(=O)NC1CC1"
endpoint_value = "100 to 500 nM"

[[record]]
test_smiles = "Cc1cc(-c2cnn3c(NCCN4CCOCC4)cc(Oc4cccc(F)c4)nc23)ccc1C(=O)NC1CC1"
endpoint_value = "≤ 100 nM"

[[record]]
test_smiles = "CC[C@H](Nc1cc(NCC2CCOCC2)n2ncc(-c3ccc(C(=O)NC4CC4)c(C)c3)c2n1)C(C)(C)O"
endpoint_value = "≤ 100 nM"


---

The reader will find reported GI50 values listed item by item below.
Test system: colon cancer cells (HCT116)
Test: Cancer cell line growth inhibition, Sulforhodamine B assay, HCT116
Type: cell-based
Details: Homo sapiens, HCT-116, HCT116 colon cancer cell line; read-out: Cancer Cell Line GI50 Range HCT116
Protocol: Breast cancer cells (MDA-MB-231 and MDA-MB-468), colon cancer cells (HCT116) and ovarian cancer cells (PA-1 and OVCAR-3) were seeded (1000 to 4000 in 80 μl per well depending on the cell growth rate) into 96 well plates 24 hours before compound overlay. […] Sulforhodamine B (purchased from Sigma, Oakville, ON, Canada) is a water-soluble dye that binds to the basic amino acids of the cellular proteins. […] Absorbance is read at 570 nm. […]
measured attribute: GI50

[[record]]
test_smiles = "Cc1cc(-c2cnn3c(NC[C@H]4CC[C@H](O)CC4)cc(Oc4cccnc4)nc23)ccc1C(=O)NC1CC1"
endpoint_value = "100 to 500 nM"

[[record]]
test_smiles = "Cc1cc(-c2cnn3c(NCC4CCOCC4)cc(N4CCC[C@@H]4CO)nc23)ccc1C(=O)NC1CC1"
endpoint_value = "100 to 500 nM"

[[record]]
test_smiles = "Cc1cc(-c2cnn3c(NCC4CCOCC4)nc(Oc4ccccc4F)nc23)ccc1C(=O)NC1CC1"
endpoint_value = "≤ 100 nM"

[[record]]
test_smiles = "Cc1cc(-c2cnn3c(NCC4CCOCC4)cc(NCC4CCOCC4)nc23)ccc1C(=O)NC1CC1"
endpoint_value = "100 to 500 nM"

[[record]]
test_smiles = "Cc1cc(-c2cnn3c(NCC4(F)CCN(C)CC4)cc(NC4CCCC4)nc23)ccc1C(=O)NC1CC1"
endpoint_value = "100 to 500 nM"

[[record]]
test_smiles = "Cc1cc(-c2cnn3c(NCC4CCOCC4)cc(NC4(CO)CCCC4)nc23)ccc1C(=O)NC1CC1"
endpoint_value = "≤ 100 nM"

[[record]]
test_smiles = "Cc1cc(-c2cnn3c(NCC4CC4)cc(NC4(CO)CCCC4)nc23)ccc1C(=O)NC1CC1"
endpoint_value = "100 to 500 nM"


---

Test system: colon cancer cells (HCT116)
Assay: Cancer cell line growth inhibition, Sulforhodamine B assay, HCT116
Type: cell-based
Conditions: Homo sapiens, HCT-116, HCT116 colon cancer cell line; read-out: Cancer Cell Line GI50 Range HCT116
The reader will find reported GI50 values listed item by item below.
measured attribute: GI50

[[record]]
test_smiles = "Cc1cc(-c2cnn3c(NCC4CCOCC4)nc(Nc4ccccc4)nc23)ccc1C(=O)NC1CC1"
target_or_test_system = "colon cancer cells (HCT116)"
measured_attribute = "GI50"
endpoint_value = "> 500 nM"

[[record]]
test_smiles = "Cc1cc(-c2cnn3c(NCC4CCOCC4)cc(N4CCC[C@H]4CO)nc23)ccc1C(=O)NC1CC1"
target_or_test_system = "colon cancer cells (HCT116)"
measured_attribute = "GI50"
endpoint_value = "≤ 100 nM"

[[record]]
test_smiles = "Cc1cc(-c2cnn3c(NCC4CCOCC4)cc(NC4(CO)CCOCC4)nc23)ccc1C(=O)NC1CC1"
target_or_test_system = "colon cancer cells (HCT116)"
measured_attribute = "GI50"
endpoint_value = "> 500 nM"

[[record]]
test_smiles = "Cc1cc(-c2cnn3c(NCCN4CCOCC4)cc(Oc4ccc(F)cc4)nc23)ccc1C(=O)NC1CC1"
target_or_test_system = "colon cancer cells (HCT116)"
measured_attribute = "GI50"
endpoint_value = "≤ 100 nM"


---

Tested on: colon cancer cells (HCT116)
Assay: Cancer cell line growth inhibition, Sulforhodamine B assay, HCT116
Format: cell-based
Details: Homo sapiens, HCT-116, HCT116 colon cancer cell line; read-out: Cancer Cell Line GI50 Range HCT116
The reader will find reported GI50 values listed item by item below.
measured attribute: GI50

[[record]]
molecule = "Cc1cc(-c2cnn3c(NCC4CCOCC4)cc(NCCN4CCOCC4)nc23)ccc1C(=O)NC1CC1 [Example C114]"
endpoint_value = "> 500 nM"

[[record]]
molecule = "Cc1cc(-c2cnn3c(NCC4(O)CCOCC4)cc(NC4CCOCC4)nc23)ccc1C(=O)NC1CC1 [Example C94]"
endpoint_value = "> 500 nM"

[[record]]
molecule = "Cc1cc(-c2cnn3c(NCC4CC4)cc(N[C@H]4CCCC[C@H]4O)nc23)ccc1C(=O)NC1CC1 [Example C42]"
endpoint_value = "≤ 100 nM"

[[record]]
molecule = "Cc1cc(-c2cnn3c(NCCN4CCC(F)CC4)cc(Oc4cccc(F)c4F)nc23)ccc1C(=O)NC1CC1 [Example C47]"
endpoint_value = "≤ 100 nM"

[[record]]
molecule = "Cc1cc(-c2cnn3c(NCC(C)C)cc(N[C@H](CO)C(C)C)nc23)ccc1C(=O)NC1CC1 [Example C158]"
endpoint_value = "≤ 100 nM"

[[record]]
molecule = "Cc1cc(-c2cnn3c(NCC(C)C)cc(N[C@H]4CCCC[C@H]4O)nc23)ccc1C(=O)NC1CC1 [Example C157]"
endpoint_value = "≤ 100 nM"

[[record]]
molecule = "COc1cccc(Oc2cc(NCCN3CCOCC3)n3ncc(-c4ccc(C(=O)NC5CC5)c(C)c4)c3n2)c1 [Example C85]"
endpoint_value = "100 to 500 nM"


---

System: breast cancer cells (MDA-MB-468)
Assay: Cancer cell line growth inhibition, Sulforhodamine B assay, MDA-MB-468
Type: cell-based
Details: Homo sapiens, MDA-MB-468, MDA-MB-468 breast cancer cell line; read-out: Cancer Cell Line GI50 Range MDA-MB-468
measured attribute: GI50

[[record]]
test_smiles = "Cc1cc(-c2cnn3c(NCCN4CCOCC4)cc(Oc4cccc(Cl)c4)nc23)ccc1C(=O)NC1CC1"
endpoint_value = "100 to 500 nM"

[[record]]
test_smiles = "Cc1cc(-c2cnn3c(NCC4(F)CCNCC4)cc(NC4CCCC4)nc23)ccc1C(=O)NC1CC1"
endpoint_value = "> 500 nM"

[[record]]
test_smiles = "Cc1cc(-c2cnn3c(NCC4CC4)cc(N[C@H]4CCCC[C@H]4O)nc23)ccc1C(=O)NC1CC1"
endpoint_value = "≤ 100 nM"

[[record]]
test_smiles = "Cc1cc(-c2cnn3c(NCC4CCOCC4)cc(Oc4cncc(F)c4)nc23)ccc1C(=O)NC1CC1"
endpoint_value = "≤ 100 nM"

[[record]]
test_smiles = "Cc1cc(-c2cnn3c(NCC4CCOCC4)cc(NCC4(CO)CC4)nc23)ccc1C(=O)NC1CC1"
endpoint_value = "100 to 500 nM"

[[record]]
test_smiles = "Cc1cc(-c2cnn3c(NCC4CCOCC4)cc(N[C@H]4CCCOC4)nc23)ccc1C(=O)NC1CC1"
endpoint_value = "100 to 500 nM"

[[record]]
test_smiles = "Cc1cc(-c2cnn3c(NCC(C)C)cc(N[C@H]4CCCC[C@H]4O)nc23)ccc1C(=O)NC1CC1"
endpoint_value = "≤ 100 nM"

